Provenance of the data: patent US20260167959A1

Tested on: Renilla luciferase RNA
Assay procedure: Barcoded aptazyme variant library screen: un-cleaved Renilla luciferase RNA by barcode read counts, HEK293-T cells
Format: cell-based
Settings: un-cleaved Renilla luciferase RNA by barcode read counts; with 1 mM theophylline (ON) over without theophylline (OFF); HEK293-T cells; triplicate
Fold change in RNA expression between the ON state and the OFF state values for the molecules below.
Metric name: Fold change in RNA expression between the ON state and the OFF state

Molecule	Test result
RA340 (nucleic acid, expressed or natural sequence) DNA: GCGCAGTGATACCAGCATCGTCTTGATGCCCTTGGCAGCACTGTCCTGGATTCGCGGAAACGCGTACATCCAGCTGACGAGTCCCAAATAGGACGAAACGCGC	0.9
RA385 (nucleic acid, expressed or natural sequence) DNA: GCGCGTCCTGGATCCGGAATACCAGCATCGTCTTGATGCCCTTGGAAGTCCGGTCGCGGAAACGCGTACATCCAGCTGACGAGTCCCAAATAGGACGAAACGCGC	0.8
RA421 (nucleic acid, expressed or natural sequence) DNA: GCGCGTCCTGGATTCGCGGAAAGAGAATACCAGCATCGTCTTGATGCCCTTGGAAGTCTCCGCGTACATCCAGCTGACGAGTCCCAAATAGGACGAAACGCGC	0.6
RA433 (nucleic acid, expressed or natural sequence) DNA: GCGCGTCCTGGATTCGCGGAAACGCGTACATCCAGCTGACGAGTCCCAAATAGGAAGTGATACCAGCATCGTCTTGATGCCCTTGGCAGCACTCGAAACGCGC	0.6
RA446 (nucleic acid, expressed or natural sequence) DNA: GCGCGTCCTGGATTCCGGAATACCAGCATCGTCTTGATGCCCTTGGAAGTCCGGCGGAAACGCGTACATCCAGCTGACGAGTCCCAAATAGGACGAAACGCGC	0.5
RA414 (nucleic acid, expressed or natural sequence) DNA: GCGCGTCCTGGATTCGCGGAAACGCGTACATCCAGCTGACGAGTCCCCCGGAATACCAGCATCGTCTTGATGCCCTTGGAAGTCCGGAAATAGGACGAAACGCGC	0.7
RA345 (nucleic acid, expressed or natural sequence) DNA: GCGCGTCCTGGATTCGCGGAAACGCGTACATCCAGCTGACGAGTCCCAAATAGGACGAAACGCGAGAATACCAGCATCGTCTTGATGCCCTTGGAAGTCTC	0.9
